Tested on: IL-2-FL/Gaussia Luciferase
experiment.description: Dox Inducible IL2-FL-Gluc Assay
Type: cell-based
experimental.setup: ratio of IC50s IL2/PD1; Table 1
Kindly state 24 hr Dox Inducible IL2FLGluc 293FRT/TO: IL2/PD1 for each of the entries shown.
One number for each entry.

Worked cases, 24 hr Dox Inducible IL2FLGluc 293FRT/TO: IL2/PD1 given:
Challenge: What measured 24 hr Dox Inducible IL2FLGluc 293FRT/TO: IL2/PD1 goes with `[2H]C([2H])(c1ccnc(F)c1)n1cc(OC(F)F)cc1C(=O)Nc1nc(/C=C/c2ncn(C3CC3)c2Cl)cs1` ?
Response given: 460

Challenge: What measured 24 hr Dox Inducible IL2FLGluc 293FRT/TO: IL2/PD1 goes with `COc1cc(C(=O)Nc2nc(/C=C/c3ncn(C(C)C)c3Cl)c(Cl)s2)n(Cc2ccnc(F)c2)c1` ?
Response given: 29

Challenge: What measured 24 hr Dox Inducible IL2FLGluc 293FRT/TO: IL2/PD1 goes with `[2H]C([2H])(c1ccnc(F)c1)n1cc(OC)cc1C(=O)Nc1nc(/C=C/c2ncn(C3CC3)c2Cl)cs1` ?
Response given: 520

---
Challenge: What measured 24 hr Dox Inducible IL2FLGluc 293FRT/TO: IL2/PD1 goes with CC(C(F)F)n1cnc(/C=C/c2csc(NC(=O)c3cc(Cl)cn3Cc3ccnc(F)c3)n2)c1 (stereo not shown) ?
Response given: 21

---

Test system: IL-2-FL/Gaussia Luciferase
experiment.description: Dox Inducible IL2-FL-Gluc Assay
Type: cell-based
experimental.setup: ratio of IC50s IL2/PD1; Table 1
Kindly state 24 hr Dox Inducible IL2FLGluc 293FRT/TO: IL2/PD1 for each of the entries shown.
Answers are plain numbers.

For each listed entry, give its 24 hr Dox Inducible IL2FLGluc 293FRT/TO: IL2/PD1.
1. O=C(Nc1nc(/C=C/c2ncn(C3CC3)c2Cl)cs1)c1cc(OCF)cn1Cc1ccnc(F)c1 [Compound A19]
2. Cc1cnc(F)cc1Cn1cc(OC(F)F)cc1C(=O)Nc1nc(/C=C/c2ncn(C3CC3)c2Cl)cs1 [Compound A24]
3. COc1cc(C(=O)Nc2nc(/C=C/c3ncn(C4CC4)c3Cl)cs2)n(Cc2ccnc(F)c2)c1 [Compound A13]
4. O=C(Nc1nc(/C=C/c2ccc3occc3c2)cs1)c1cccn1Cc1ccnc(F)c1 [Compound B27]
5. CC(C)n1cnc(/C=C/c2csc(NC(=O)c3cccn3Cc3ccnc(F)c3)n2)c1C#N [Compound B20]

Response given:
[360, 1100.0, 440, 5.2, 170.0]

---

experiment.description: Liver Microsome Stability Assay, rat
Format: in vitro ADME
experimental.setup: rat liver microsomes 1.0 mg/mL, 1.0 uM compound, 37° C., 1 mM NADPH
recorded.endpoint: Liver Microsome Stability (Multiple Species): Rat - % Remaining after 30 min w/ NADPH (%)
Answers are plain numbers, in %.

Challenge: What measured Liver Microsome Stability (Multiple Species): Rat - % Remaining after 30 min w/ NADPH (%) goes with C/C(=C\c1ccc(C)c(F)n1)c1csc(NC(=O)c2cccn2Cc2ccnc(F)c2)n1 [Compound B7] ?
Response given: 13

Challenge: What measured Liver Microsome Stability (Multiple Species): Rat - % Remaining after 30 min w/ NADPH (%) goes with N#Cc1c(/C=C/c2csc(NC(=O)c3cc(OC(F)F)cn3Cc3ccnc(F)c3)n2)ncn1C1CC1 [Compound A27] ?
Response given: 2

Challenge: What measured Liver Microsome Stability (Multiple Species): Rat - % Remaining after 30 min w/ NADPH (%) goes with O=C(Nc1nc(/C=C/c2ccc(C(F)(F)F)cn2)cs1)c1cccn1Cc1ccnc(F)c1 [Compound B5] ?
Response given: 20

Now for the compound whose Liver Microsome Stability (Multiple Species): Rat - % Remaining after 30 min w/ NADPH (%) we want.
Challenge: What measured Liver Microsome Stability (Multiple Species): Rat - % Remaining after 30 min w/ NADPH (%) goes with CC(C)n1cnc(/C=C/c2csc(NC(=O)c3cc(OC(F)F)cn3Cc3ccnc(F)c3)n2)c1Cl [Compound A7] ?
Response given: 84

This collection of values is drawn from patent US20250171434A1.
